METHOD SUMMARY: Rat pharmacokinetics
Assay type: in vivo
CONDITION CONTEXT: in vivo, po, i.g, read-out: MRTINF—obs
ENDPOINT: MRT inf (h)

(P) COc1ccc2[nH]c3c(c2c1)CC1c2cc(OC)c(OCc4ccc(C(F)(F)F)cc4)cc2CCN1C3 (centres unmarked) [Example C47]
(Q) COc1ccc2[nH]c3c(c2c1)CC1c2cc(OCc4ccc(C(F)(F)F)cc4)c(OC)cc2CCN1C3 (centres unmarked) [Example C3]
Please state the entry with greater MRT inf among P and Q . Please respond with the label that marks your chosen entry.
P

* * *

Tested on: Syrian golden hamsters (high-fat diet, hyperlipidemia model)
METHOD SUMMARY: In vivo lipid-lowering activity in high-fat diet golden hamsters
Parameters: species or system Syrian golden hamster
CONDITION CONTEXT: Dose 30, oral
Protocol: After adaptively feeding Syrian golden hamsters (male, 80-100 g) for a week, all hamsters were fed with high-fat diet. Two weeks later, blood was collected from the orbital venous plexus, serum was separated, and levels of total cholesterol (TC), triglyceride (TG), high-density lipoprotein (HDL-C) and low-density lipoprotein (LDL-C) in serum were measured. […] Blood lipid levels and body weights were measured every 10 days. […]
ENDPOINT: TC (mmol/L)
Your answer should be a plain number; it is taken to be in mmol/L.

> print(dat)
                                   compound                            assayed.target  endpoint  observed.result
1  COc1ccc2[nH]c3c(c2c1)CC1c2cc(OC)c(OCc4ccc(C(F)(F)F)cc4)cc2CCN1C3 (stereo not shown) [Example C47]  Syrian golden hamsters (high-fat diet, hyperlipidemia model)        TC            19.73

# return recorded TC for entry COc1ccc2[nH]c3c(c2c1)CC1c2cc(OCc4ccccc4F)c(OC)cc2CCN1C3 (stereo not shown) [Example C9]
36.87

# return recorded TC for entry COc1ccc2[nH]c3c(c2c1)CC1c2cc(OCc4ccc(C(F)(F)F)cc4)c(OC)cc2CCN1C3 (stereo not shown) [Example C3]
25.08

# return recorded TC for entry COc1ccc2c(c1)c1c(n2CO)CN2CCc3cc(OCc4cccc(F)c4)c(OC)cc3C2C1 (stereo not shown) [Example A61]
37.11

* * *

METHOD SUMMARY: Rat pharmacokinetics
Type: in vivo
CONDITION CONTEXT: plasma, iv
ENDPOINT: Tmax (min)

> print(dat)
                                   compound  endpoint  units  observed.result
1  COc1ccc2c(c1)c1c(n2CO)CN2CCc3cc(OCc4ccccc4)c(OC)cc3C2C1 (centres unmarked) [Example A55]      Tmax    min             4.98
2  COc1ccc2c(c1)c1c(n2CO)CN2CCc3cc(OC)c(OCc4ccccc4)cc3C2C1 (centres unmarked) [Example A1]      Tmax    min             4.98

* * *

METHOD SUMMARY: Rat pharmacokinetics
Assay type: in vivo
Design: concentration or dose not given beside the values
CONDITION CONTEXT: in vivo, po, i.g
ENDPOINT: AUC(0-t) (ng·h/mL)

(I) COc1ccc2[nH]c3c(c2c1)CC1c2cc(OC)c(OCc4ccc(C(F)(F)F)cc4)cc2CCN1C3 (centres unmarked) [Example C47]
(II) COc1ccc2[nH]c3c(c2c1)CC1c2cc(OCc4ccc(C(F)(F)F)cc4)c(OC)cc2CCN1C3 (centres unmarked) [Example C3]
Please state the entry with greater AUC(0-t) among I and II . Please respond with the label that marks your chosen entry.
I

* * *

Test system: Syrian golden hamsters (high-fat diet, hyperlipidemia model)
METHOD SUMMARY: In vivo lipid-lowering activity in high-fat diet golden hamsters
Design: species or system Syrian golden hamster
CONDITION CONTEXT: high-fat diet, abdominal (intraperitoneal) 30 mg/kg once a day for three weeks, serum
Catalogue of compounds with associated LDL-C
Your answer should be a plain number; it is taken to be in mmol/L.

Some solved cases for reference:
> print(dat)
                                   compound  observed.result
1  COc1ccc2c(c1)c1c(n2CO)CN2CCc3cc(OCc4ccccc4)c(OC)cc3C2C1 (stereo not shown) [Example A55]             9.39
2  COc1ccc2c(c1)c1c(n2CO)CN2CCc3cc(OC)c(OCc4ccc(F)cc4)cc3C2C1 (stereo not shown) [Example A5]             6.16
3  COc1ccc2[nH]c3c(c2c1)CC1c2cc(OCc4ccc(F)cc4)c(OC)cc2CCN1C3c1ccc(F)cc1 (stereo not shown) [Example B5]             7.89

Recall the reported LDL-C of COc1ccc2c(c1)c1c(n2CO)CN2CCc3cc(OC)c(OCc4ccccc4)cc3C2C1 (stereo not shown) [Example A1] on Syrian golden hamsters (high-fat diet, hyperlipidemia model) and write it down.
5.25

* * *

METHOD SUMMARY: Rat pharmacokinetics
Design: concentration or dose not given beside the values
CONDITION CONTEXT: in vivo, ip, i.p, read-out: AUCINF—obs
ENDPOINT: AUC(0-inf) (µg·h/mL)

(1) COc1ccc2[nH]c3c(c2c1)CC1c2cc(OC)c(OCc4ccc(C(F)(F)F)cc4)cc2CCN1C3 (centres unmarked) [Example C47]
(2) COc1ccc2[nH]c3c(c2c1)CC1c2cc(OCc4ccc(C(F)(F)F)cc4)c(OC)cc2CCN1C3 (centres unmarked) [Example C3]
Please state the entry with greater AUC(0-inf) among 1 and 2 . Please respond with the label that marks your chosen entry.
1

* * *

METHOD SUMMARY: Rat pharmacokinetics
Type: in vivo
CONDITION CONTEXT: plasma, po
ENDPOINT: Tmax (h)

(A) COc1ccc2c(c1)c1c(n2CO)CN2CCc3cc(OCc4ccccc4)c(OC)cc3C2C1 (centres unmarked) [Example A55]
(B) COc1ccc2c(c1)c1c(n2CO)CN2CCc3cc(OC)c(OCc4ccccc4)cc3C2C1 (centres unmarked) [Example A1]
Please state the entry with greater Tmax among A and B . Please respond with the label that marks your chosen entry.
B
(B: 6 h, A: 4 h)

* * *

METHOD SUMMARY: Rat pharmacokinetics
Format: in vivo
CONDITION CONTEXT: in vivo, ip, i.p
ENDPOINT: half-life (h)

(A) COc1ccc2[nH]c3c(c2c1)CC1c2cc(OCc4ccc(C(F)(F)F)cc4)c(OC)cc2CCN1C3 (centres unmarked) [Example C3]
(B) COc1ccc2[nH]c3c(c2c1)CC1c2cc(OC)c(OCc4ccc(C(F)(F)F)cc4)cc2CCN1C3 (centres unmarked) [Example C47]
Record comparison, field half-life: mark the lower of A and B . Please respond with the label that marks your chosen entry.
A

* * *

METHOD SUMMARY: Rat pharmacokinetics
Design: concentration or dose not given beside the values
CONDITION CONTEXT: in vivo, ip, i.p
ENDPOINT: AUC(0-t) (ng·h/mL)

(A) COc1ccc2[nH]c3c(c2c1)CC1c2cc(OC)c(OCc4ccc(C(F)(F)F)cc4)cc2CCN1C3 (centres unmarked)
(B) COc1ccc2[nH]c3c(c2c1)CC1c2cc(OCc4ccc(C(F)(F)F)cc4)c(OC)cc2CCN1C3 (centres unmarked)
Please state the entry with greater AUC(0-t) among A and B . Please respond with the label that marks your chosen entry.
A

* * *

METHOD SUMMARY: Rat pharmacokinetics
Type: in vivo
CONDITION CONTEXT: plasma, po, read-out: MRTINF—obs
ENDPOINT: MRT inf (h)
Your answer should be a plain number; it is taken to be in h.

# return recorded MRT inf for entry COc1ccc2c(c1)c1c(n2CO)CN2CCc3cc(OCc4ccccc4)c(OC)cc3C2C1 (stereo not shown) [Example A55]
4.8

* * *

Tested on: Syrian golden hamsters (high-fat diet, hyperlipidemia model)
METHOD SUMMARY: In vivo lipid-lowering activity in high-fat diet golden hamsters
Design: species or system Syrian golden hamster
CONDITION CONTEXT: high-fat diet, abdominal (intraperitoneal) 30 mg/kg once a day for three weeks, serum
ENDPOINT: TG (mmol/L)
Your answer should be a plain number; it is taken to be in mmol/L.

Some solved cases for reference:
> print(dat)
                                   compound   units  observed.result
1  COc1ccc2c(c1)c1c(n2CO)CN2CCc3cc(OC)c(OCc4ccc(F)cc4)cc3C2C1 (stereo not shown)  mmol/L            13.26
2  COc1ccc2[nH]c3c(c2c1)CC1c2cc(OCc4ccc(F)cc4)c(OC)cc2CCN1C3c1ccc(F)cc1 (stereo not shown)  mmol/L            16.14
3  COc1ccc2c(c1)c1c(n2CO)CN2CCc3cc(OC)c(OCc4ccccc4)cc3C2C1 (stereo not shown)  mmol/L             8.16

# return recorded TG for entry COc1ccc2c(c1)c1c(n2CO)CN2CCc3cc(OCc4ccccc4)c(OC)cc3C2C1 (stereo not shown)
19.77

Provenance of the data: patent US10927107B2
